B1: library; a variant is named by its letters at N, in order (parent)
chain: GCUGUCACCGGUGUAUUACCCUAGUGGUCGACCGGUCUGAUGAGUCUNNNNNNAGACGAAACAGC

Variants of: B1
Assay: normalized RNA/DNA level with ligand (relative to sTRSVctl = 100) (log10 (% of sTRSVctl)); ligand: hypoxanthine (xanthine aptamer); higher = less ribozyme self-cleavage, higher mRNA level
Details: ligand concentration (+) RNA-Seq: 5 mM, HEK293T, reporter: mCherry (pCS4076), ligand present: yes
measured quantity: normalized RNA/DNA level with ligand (log10)
API note: the answer field is a bare number with no unit suffix.

[Q] Bench note: what normalized RNA/DNA level with ligand (log10) did CAAUAG show?
[A] 1.91

[Q] Bench note: what normalized RNA/DNA level with ligand (log10) did AUGCUU show?
[A] 1.93

[Q] Bench note: what normalized RNA/DNA level with ligand (log10) did CUAGUU show?
[A] 1.92

[Q] Bench note: what normalized RNA/DNA level with ligand (log10) did UGCCCC show?
[A] 2.01
